# Tested on: SN12C renal
# experiment summary: NCI-60 one-dose screen, 48 h (100 = growth as untreated, 0 = no growth, -100 = all killed)
# reported conditions: 10 µM unless noted
# Method: Growth inhibition of the SN12C human tumor cell line is measured as a screen for anti-cancer activity. Cells are grown in 96 well plates and exposed to the test compound for 48 hours. Compounds are tested at a single concentration, which is 10^-5 M for most compounds. The reported endpoint is percent growth (GI% or GIPRCNT), where numbers from 0 - 100% represent growth inhibition, and numbers from -100% - 0 represent cell death. For example, a value of 40 represents 60% growth inhibition. […]
The panel holds about 83,000 compounds, 20% with a hit somewhere; the sample as a whole holds those more often.
Each entry below lists one item and its recorded growth value.

mol | assay system | growth / %
COC12C=C/C(=C(/C(=O)OCc3ccncn3)C(=O)CCCCCCCCC3(OC)C=C/C(=C(/C(=O)OCc4ccncn4)C(=O)CCCCCCCC1)O3)O2 | SN12C renal | -10.7
Cc1ccc(C)n1-c1ccccc1-n1c(C)ccc1C | SN12C renal | 93.5
CC1=C2[C@@H](CC1)[C@]1(C)O[C@@](C(C)C)(C[C@H]1OC(=O)[C@H](C)O)[C@H]2OC(=O)/C=C/c1ccccc1 | SN12C renal | 45.7
Clc1cccc(Nc2ncnc3ccc(-c4cnc5[nH]ccc5c4)cc23)c1 | SN12C renal | 77.3

---

# System: UO-31 renal
# experiment summary: NCI-60 one-dose screen, 48 h
# reported conditions: 10 µM unless noted
This is part of a sample that, as a whole, favours compounds with a hit. Of some 83,000 tested, about 20% had one in any assay. Activity calls are given as the source filed them. How the source made its calls: active means growth percent below 10; inactive means the rest.
Labels: 1 (active), -1 (inactive)

compound | discrete label
Cc1ccc(NC(=O)Cn2cc(CN3CCN(c4ccnc5cc(Cl)ccc45)CC3)nn2)cc1 | -1
N#Cc1c(-c2ccc(Cl)cc2)nc(NN2C(=O)c3ccccc3C2=O)nc1N1CCOCC1 | -1
COc1ccccc1N1CCCCC1 | -1
O=C1NC(=O)C(Cc2ccc(OCc3ccc(-c4ccc(Cl)cc4Cl)cc3)cc2)S1 (stereo not given) | -1
Cc1nc2sc(C(=O)Nc3cccc(Br)c3)c(N)c2cc1C(O)c1ccccc1 (stereo not given) | -1
Cc1ccc2c(Cn3cc(CSc4nc5ccccc5o4)nn3)cc(=O)oc2c1 | -1
CS(=O)(=O)Nc1cncc(-c2ccc3ncnc(Nc4cncc(Cl)c4)c3c2)c1 | -1
CCN(CC)CCn1c2ccc(O)cc2c2sc3cc(O)ccc3c(=O)c21 | -1
Nc1nc(-c2ccc(Cl)cc2)nc2c1sc(=S)n2-c1ccccc1 | 1
O=C(CSc1nnc(-c2cnccn2)n1-c1ccccc1)c1ccc(Cl)cc1 | -1

---

# Tested on: 786-0 renal
# experiment summary: NCI-60 one-dose screen, 48 h (100 = growth as untreated, 0 = no growth, -100 = all killed)
# reported conditions: 10 µM unless noted
Compounds without any hit were thinned out: in the full panel of roughly 83,000, 20% have a hit.
Values of growth greater than or equal to -20% map to true (1); values below map to false (0).

mol | discrete label
Oc1c(I)cc(I)cc1CNCCN(Cc1ccccn1)Cc1ccccn1 | false (0)
CCOC(=O)Cc1cnc(N/N=C(\C)c2cc3ccccc3o2)s1 | true (1)
CCOC(=O)c1c2c(n3cccc(F)c13)C(=O)c1ncccc1C2=O | true (1)
N#CSc1c[nH]c2cccc(/C=C/C(=O)/C=C(/C=C/c3cccc4[nH]cc(SC#N)c34)OB(F)F)c12 | false (0)
Cc1cc(=O)n(C(=O)Nc2ccccc2Cl)c2cc(O)ccc12 | true (1)

Reference for the values: PubChem BioAssay (NCI)
